Target Of Assay: glutathione S-transferase (GST)-fused full-length human Syk protein (Homo sapiens)
Construct: (GST)-fused full-length human Syk protein; GST (glutathione S-transferase); purchased Carna Biosciences
Protocol Description: Syk enzyme assay
Assay type: biochemical
Conditions: Syk enzyme assay, Test Example 1; read-out: IC50 of Syk-inhibitory activity
pIC50: −log10 of the molar value.
Listed here are compounds together with their documented pIC50.
Measurement Label: pIC50

> print(dat)
                                    compound  recorded.result
 1  NC(=O)c1cc(F)c(N[C@@H]2CCCC[C@@H]2N)nc1Nc1cccc(-n2ccnn2)c1 (relative stereo) [Example 006-122]           > 8.00
 2  CCc1nn(C)c2ccc(Nc3nc(N[C@H](CC)[C@H](C)N)c(F)cc3C(N)=O)cc12 [Example 006-539]           > 8.00
 3  NCCNCCNc1nc(Nc2ccc3ncccc3c2)c(C(N)=O)cc1F [Example 002-128]     6.00 to 7.00
 4  NC(=O)c1cc(F)c(N[C@@H]2CCCC[C@@H]2N)nc1Nc1cncc(-c2ccc(N)cc2)c1 (relative stereo) [Example 004-218]           > 8.00
 5  NC(=O)c1cc(F)c(N[C@@H]2CCCC[C@@H]2N)nc1Nc1cnc2c(N3CCOCC3)cccc2c1 [Example 004-033]           > 8.00
 6  CCCn1ncc2cc(Nc3nc(NC4CCCCC4N)c(F)cc3C(N)=O)ccc21 (stereo not shown) [Example 002-126]           > 8.00
 7  Cc1ncc(Nc2nc(NC3CCCCC3N)c(F)cc2C(N)=O)cc1-n1cccn1 (stereo not shown) [Example 002-135]     7.30 to 8.00
 8  CC(C)C[C@@H](Nc1nc(Nc2cncc(C3CC3)c2)c(C(N)=O)cc1F)[C@H](C)N [Example 006-412]           > 8.00
 9  COc1ccc(C[C@@H](Nc2nc(Nc3ccc4ncccc4c3)c(C(N)=O)cc2F)C(N)=O)cc1 [Example 012-034]     6.00 to 7.00
10  NC(=O)c1cc(F)c(N[C@H](c2ccccc2)[C@@H](N)c2ccccc2)nc1Nc1ccc2cccnc2c1 (racemic) [Example 006-141]     6.00 to 7.00
11  COc1nccc2cc(Nc3nc(N[C@@H]4CCCC[C@@H]4N)c(F)cc3C(N)=O)ccc12 (relative stereo) [Example 004-164]           > 8.00
12  NC(=O)c1cc(F)c(NC2CCCCC2N)nc1Nc1ccc(OCCO)nc1 (stereo not shown) [Example 002-079]     7.00 to 7.30
13  C[C@H](N)[C@H](Nc1nc(Nc2ccc3c(c2)c(F)nn3C)c(C(N)=O)cc1F)C1CC1 [Example 006-577]           > 8.00
14  COc1cccc(-c2cc(Nc3nc(N[C@@H](CN)CC(C)C)c(F)cc3C(N)=O)ccn2)c1F [Example 006-327]           > 8.00
15  CCC[C@@H](Nc1nc(Nc2ccc3c(cnn3CC)c2)c(C(N)=O)cc1F)[C@H](C)N [Example 006-237]           > 8.00
16  CC(C)Cn1ccc2c(Nc3nc(N[C@@H]4CCCC[C@@H]4N)c(F)cc3C(N)=O)ccnc21 [Example 004-036]           > 8.00
17  CCCC[C@@H](Nc1nc(Nc2cnc(C)c(-n3nccn3)c2)c(C(N)=O)cc1F)[C@H](C)N [Example 006-390]           > 8.00
18  COc1cc(Nc2nc(N[C@H](C(N)=O)c3ccccc3)c(F)cc2C(N)=O)cc(OC)c1 [Example 016-018]     6.00 to 7.00
19  NC(=O)c1cc(F)c(N[C@@H]2CCCC[C@@H]2N)nc1Nc1cnc2c(NS(=O)(=O)CCl)cccc2c1 (relative stereo) [Example 41-3]     7.30 to 8.00
20  COc1ncc(Nc2nc(N[C@@H]3CCCC[C@@H]3N)c(F)cc2C(N)=O)cc1F [Example 006-484]     7.30 to 8.00
21  CC(C)(C)C(=O)Nc1cccc2cc(Nc3nc(N[C@@H]4CCCC[C@@H]4N)c(F)cc3C(N)=O)cnc12 (relative stereo) [Example 41-11]           > 8.00
22  NC(=O)c1cc(F)c(N[C@@H]2CCCC[C@@H]2N)nc1Nc1cncc(-c2ccncc2)c1 [Example 004-104]     7.30 to 8.00
23  NC(=O)c1cc(F)c(NC2CCCCC2N)nc1Nc1ccnc(-n2cncn2)c1 (stereo not shown) [Example 002-114]           > 8.00
24  CC(C)C[C@@H](CN)Nc1nc(Nc2ccc3ncccc3c2)c(C(N)=O)cc1F [Example 006-203]     6.00 to 7.00
25  NC(=O)c1cc(F)c(N[C@@H]2CCCC[C@@H]2N)nc1Nc1cnc2cc(N)ccc2c1 (relative stereo) [Example 004-125]           > 8.00
